Tested on: U-266
Experiment: Cytotoxicity against human U266 cells after 72 hrs by fluoroskan ascent microplate reader analysis
Type: functional, cell-based
Conditions: U-266, 72 h
observationType: pIC50
# pIC50 is unitless: minus log10 of the molar concentration; print number only

query: Fill in: pIC50 of CC[C@H](CO)Nc1nc(NCc2ccccc2)c2[nH]nc(C(C)C)c2n1 is ___
result: 5.31

----------
Test system: G-361
Assay: Cytotoxicity against human G361 cells after 72 hrs by fluoroskan ascent microplate reader analysis
Type: functional, cell-based
Settings: G-361, 72 h
observationType: pIC50
# pIC50 is unitless: minus log10 of the molar concentration; print number only

query: Fill in: pIC50 of CC[C@H](CO)Nc1nc(NCc2ccccc2)c2[nH]nc(C(C)C)c2n1 is ___
result: 5.32
